Every entry's value here was drawn from patent US8524917B2.

system: human S1P3 receptor (Homo sapiens (Human))
Sequence (Q99500 whole entry): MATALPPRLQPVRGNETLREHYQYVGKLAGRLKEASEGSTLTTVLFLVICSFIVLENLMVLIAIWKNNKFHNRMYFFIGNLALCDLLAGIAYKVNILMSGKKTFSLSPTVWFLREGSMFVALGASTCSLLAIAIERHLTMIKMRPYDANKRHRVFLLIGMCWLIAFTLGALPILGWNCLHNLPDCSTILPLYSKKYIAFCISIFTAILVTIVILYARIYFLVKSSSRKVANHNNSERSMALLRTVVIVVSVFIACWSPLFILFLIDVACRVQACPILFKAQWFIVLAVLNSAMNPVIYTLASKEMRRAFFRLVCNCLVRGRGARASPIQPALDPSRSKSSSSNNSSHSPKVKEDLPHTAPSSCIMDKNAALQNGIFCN
protocol: Activation or block of activation of human S1P3 receptor, Ca+2 FLIPR assay
Format: cell-based
appliedConditions: read-out: S1P3 IC50
pIC50: −log10 of the molar value.
Listing of recorded pIC50 by entry.

{"columns": ["molecule", "system", "pIC50"],
 "data": [
  ["CCCCCCOc1ccc2c(C(=O)NCc3ccc(F)c(F)c3)c(C(C)C)n(Cc3ccccc3)c2c1 [Compound 14]", "human S1P3 receptor (Homo sapiens (Human))", 5.51],
  ["CCOC(=O)c1ccc2c(C(=O)NCc3cncc(F)c3)c(C(C)C)n(Cc3ccccc3)c2c1 [Compound 44]", "human S1P3 receptor (Homo sapiens (Human))", 7.62],
  ["CCOC(=O)c1ccc2c(C(=O)NCc3ccc(F)c(F)c3)c(C(C)C)n(Cc3cccnc3)c2c1 [Compound 46]", "human S1P3 receptor (Homo sapiens (Human))", 6.62],
  ["CC(C)c1c(C(=O)NCc2cncc(F)c2)c2ccc(OC3CCCC3)cc2n1Cc1ccccn1 [Compound 148]", "human S1P3 receptor (Homo sapiens (Human))", 7.89]
]}

----------
system: human S1P3 receptor (Homo sapiens (Human))
protocol: Activation or block of activation of human S1P3 receptor, Ca+2 FLIPR assay
Format: cell-based
appliedConditions: read-out: S1P3 IC50
pIC50: −log10 of the molar value.
Listing of recorded pIC50 by entry.

{"columns": ["compound", "system", "pIC50"],
 "data": [
  ["CC(C)c1c(C(=O)NCc2ccc(F)c(F)c2)c2ccc(OC3CCCC3)cc2n1Cc1cccnc1 [Compound 153]", "human S1P3 receptor (Homo sapiens (Human))", 8.30],
  ["CC(C)c1c(C(=O)NCc2cncc(F)c2)c2ccc(C3=N[C@@H](C)CO3)cc2n1Cc1ccccc1 [Compound 72]", "human S1P3 receptor (Homo sapiens (Human))", 7.37],
  ["CC(C)c1c(C(=O)NCc2ccc(F)c(F)c2)c2ccc(OC3CCOCC3)cc2n1Cc1ccccc1 [Compound 133]", "human S1P3 receptor (Homo sapiens (Human))", 7.44],
  ["CCCOc1ccc2c(C(=O)NCc3ccc(F)c(F)c3)c(C(C)C)n(Cc3ncco3)c2c1 [Compound 212]", "human S1P3 receptor (Homo sapiens (Human))", 6.41],
  ["CC(C)c1c(C(=O)NCc2cncc(F)c2)c2ccc(NC3CCCC3)cc2n1Cc1ccccc1 [Compound 193]", "human S1P3 receptor (Homo sapiens (Human))", 6.79],
  ["CC(C)c1c(C(=O)NCc2ccc(F)c(F)c2)c2ccc(NC3CCC3)cc2n1Cc1ccccc1 [Compound 190]", "human S1P3 receptor (Homo sapiens (Human))", 7.89],
  ["CC(C)c1c(C(=O)NCc2cc(F)cc(F)c2)c2ccc(NC3CCC3)cc2n1Cc1ccccc1 [Compound 194]", "human S1P3 receptor (Homo sapiens (Human))", 7.70],
  ["CC(C)c1c(C(=O)NCc2ccc(F)c(F)c2)c2ccc(OC3CCCO3)cc2n1Cc1ccccc1 (stereo not shown) [Compound 27]", "human S1P3 receptor (Homo sapiens (Human))", 8.22],
  ["CCC(=O)Oc1ccc2c(C(=O)NCc3ccc(F)c(F)c3)c(C(C)C)n(Cc3ccccc3)c2c1 [Compound 24]", "human S1P3 receptor (Homo sapiens (Human))", 7.70],
  ["CC(=O)Oc1ccc2c(C(=O)NCc3ccc(F)c(F)c3)c(C(C)C)n(Cc3ccccc3)c2c1 [Compound 23]", "human S1P3 receptor (Homo sapiens (Human))", 7.85]
]}
